# assayProcedure: Cmax in mouse at 50 mg/kg, administered through oral gavage by LC-MS analysis
# Format: ADME, organism-based
# Set-up: dose 50 mg/kg, route oral
# testConditions: in vivo
endpointName: Cmax (µM)

>  <chemicalSmiles>
Clc1cc(Cl)cc(CN[C@H]2CCCN(c3nc4nc(Cl)ccc4[nH]3)C2)c1

>  <dataValue>
37.6

$$$$

###

// values below are reported EC50 at 48 h
# assayProcedure: Cytotoxicity against human HepG2 cells assessed as cell viability after 48 hrs by alamar blue assay
# Format: toxicity, cell-based

>  <compound>
O=C(Cc1cc(Cl)cc(Cl)c1)N1CCCC(c2nc3cc(Cl)ccc3[nH]2)C1 (configuration not stated)

>  <resultQualifier>
=

>  <EC50 at 48 h (µM)>
35.4

$$$$
>  <compound>
Clc1cc(Cl)cc(CNCCCc2nc3ccc(Cl)nc3[nH]2)c1

>  <resultQualifier>
=

>  <EC50 at 48 h (µM)>
45.6

$$$$
>  <compound>
CCN(CC)CCCC(C)Nc1c2ccc(Cl)cc2nc2ccc(OC)cc12 (configuration not stated) [QUINACRINE]

>  <resultQualifier>
=

>  <EC50 at 48 h (µM)>
11.9

$$$$
>  <compound>
Clc1cc(Cl)cc(CNC2CCCC(c3nc4nc(Cl)ccc4[nH]3)C2)c1 (configuration not stated)

>  <resultQualifier>
=

>  <EC50 at 48 h (µM)>
32.3

$$$$
>  <compound>
Clc1cc(Cl)cc(CN[C@H]2CCCN(c3nc4nc(Cl)ccc4[nH]3)C2)c1

>  <resultQualifier>
=

>  <EC50 at 48 h (µM)>
49

$$$$
>  <compound>
Clc1cc(Cl)cc(NCC2CCCN(c3nc4nc(Cl)ccc4[nH]3)C2)c1 (configuration not stated)

>  <resultQualifier>
=

>  <EC50 at 48 h (µM)>
29.2

$$$$
>  <compound>
Clc1cc(Cl)cc(CNC2CCCN(c3nc4nc(Cl)ccc4[nH]3)C2)c1 (configuration not stated)

>  <resultQualifier>
>

>  <EC50 at 48 h (µM)>
50

$$$$

Cited source for all entries: ChEMBL document CHEMBL3877291
